Test Method Notes: Solubility in phosphate buffered saline by visual observation
Type: physicochemical
Condition: aqueous buffer, thermodynamic from solid, phosphate buffered saline (PBS pH 7.2-7.4), room temperature
Counter-ions that a name gives are not always drawn.
Readout Type: solubility

Consider the compound shown here: CC1=NCCS1 [2-MT-NDSA salt] What is its recorded solubility? 100 to 200 mg/mL
